# EXPERIMENTAL SYSTEM: UniProt P14679
# Sequence (P14679 whole entry): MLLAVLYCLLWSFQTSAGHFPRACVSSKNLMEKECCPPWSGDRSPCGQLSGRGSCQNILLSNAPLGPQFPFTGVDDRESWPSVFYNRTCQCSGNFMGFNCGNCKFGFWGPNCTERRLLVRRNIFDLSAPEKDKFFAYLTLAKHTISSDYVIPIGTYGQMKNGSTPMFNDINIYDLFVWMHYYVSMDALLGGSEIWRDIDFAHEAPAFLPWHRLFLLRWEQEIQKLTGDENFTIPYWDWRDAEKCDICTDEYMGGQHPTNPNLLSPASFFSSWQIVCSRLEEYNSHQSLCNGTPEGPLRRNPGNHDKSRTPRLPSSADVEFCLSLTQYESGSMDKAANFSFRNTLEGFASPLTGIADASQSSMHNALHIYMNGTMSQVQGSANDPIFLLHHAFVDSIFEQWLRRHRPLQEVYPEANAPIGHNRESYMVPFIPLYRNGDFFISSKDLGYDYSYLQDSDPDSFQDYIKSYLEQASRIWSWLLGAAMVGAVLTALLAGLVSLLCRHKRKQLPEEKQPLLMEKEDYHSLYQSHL
# ASSAY REMARKS: Inhibition of tyrosinase at 500 uM
Use Condition met when the recorded inhibition is no lower than 10%; use Condition not met when it is lower.

{"MOLECULE": "COc1c(CC=C(C)C)c2c(c(O)c1C(C)=O)C=CC(C)(C)O2", "CATEGORY": "Condition not met"}
{"MOLECULE": "COc1c(CC=C(C)C)c(O)c(C(=O)CC(C)C)c(O)c1C(C)=O", "CATEGORY": "Condition met"}
{"MOLECULE": "COc1c(CC=C(C)C)c2c(c(O)c1C(C)=O)C[C@H](C(C)(C)O)O2", "CATEGORY": "Condition not met"}
{"MOLECULE": "C=C(C)C(O)Cc1c(O)cc(O)c(C(C)=O)c1OC (stereo not given)", "CATEGORY": "Condition not met"}
{"MOLECULE": "COc1c(CC=C(C)C)c(O)c(C=O)c(O)c1C(C)=O", "CATEGORY": "Condition met"}
